For each of the sequences below, state its protein stability index.
# System: Saccharomyces cerevisiae;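 further: PSI is a weighted mean of sequencing reads over stability bins, variants kept only with over 10 reads, mCherry proximal and sfGFP distal, peptide attached via GGGS linker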
# testSummary: protein stability index of tFT-peptide fusion (C-terminal peptide) (PSI (0-1 scale)); higher = more stable (slower turnover)
# reportedConditions: genetic background: wild type; temperature: 30 C
Kindly provide the number alone.

Task: GET /values?readout=protein stability index&item= LLPSPLPPHPPP
Result: 0.637

Task: Now consider LWPSLRRFHSTS .
Result: 0.714

Task: Another: APPPPPPAPQPP
Result: 0.619

Task: Subsequent entry: DFRAGPLPCRPP
Result: 0.695

Task: Then what about the sequence PPPPPLPLPPPF ?
Result: 0.697

Task: Repeat for the following sequence: PSSHPLLPPPPP
Result: 0.67

Task: Now consider GYTVYARRLIMC .
Result: 0.146

Task: Thanks! And PYLSAPLVATLS ?
Result: 0.385

Task: Next entry: WLVFRISLLRFD
Result: 0.541

Task: Same lookup for IIAGGGPARGCG , please.
Result: 0.635

Task: Now the sequence FCRFCEFIFIFL
Result: 0.499

Task: RGARRHSPTARW ?
Result: 0.717

Task: Try the sequence KTKERKKQMRKI
Result: 0.682

Task: Moving on to the next sequence: GAPLFTYVIVRR
Result: 0.621

Task: Request: HCLIPGEIHRIS
Result: 0.674

Task: Can you check SPLLLLPAPPPP next?
Result: 0.673

Task: Then this sequence: TGTEKFTMQFKF
Result: 0.673

Task: Next sequence up: VLSPLIGRICGH
Result: 0.658

Task: Similarly, PLPPPPLLALCS ?
Result: 0.531

Task: Also AGPPRTAVSPPL ?
Result: 0.675

Task: Record: VGGVVWIGGVVG
Result: 0.667

Task: Request: LPPGFPYLSQLP
Result: 0.666

Task: // query: PLCLCCPIGIIS
Result: 0.516

Task: EGSPIVNSLALD , same question.
Result: 0.668

Task: Another sequence to check: FLFFCGWVSLFG
Result: 0.424

Task: Also need FDPTGPIGMRPT , thanks.
Result: 0.653

Task: Next sequence: SPGFVLLAVLVI
Result: 0.347

Task: Another: PPSPPPPPPSPF
Result: 0.304

Task: And what about the sequence GSLHVISVVGML ?
Result: 0.52

Task: How about this sequence: GPCQSPSLVLTC
Result: 0.555

Task: Please do the same for TFSWISGKPRHT as well.
Result: 0.679

Task: Next record, please: PPPPPIPRPPHA
Result: 0.73

Task: Let us now turn to LSARVSYRITLR
Result: 0.599

Task: Try this sequence next: YQAVRGRVFVAL
Result: 0.638

Task: Query RYGLSLLQASRR next
Result: 0.679

Task: Would you mind doing GNKKENEKKEKK as well?
Result: 0.734

Task: What do you get for LRLPPPPPLPHV ?
Result: 0.704

Task: // repeat for GNVRRVYMDYQG and report
Result: 0.735

Task: Would you kindly repeat that for RCFQPLRQRMGR ?
Result: 0.734

Task: Item: TAYNVTLVIARG
Result: 0.468

Task: Next sequence: VESDREPIFGCA
Result: 0.655

Task: // next record RAPPPPHPSSPP
Result: 0.744

Task: Now give it for VRVLAALVLCVV too.
Result: 0.312

Task: Would you mind doing FCSPPTLPPSPS as well?
Result: 0.732

Task: Same again, this time with GKEQIEKKIEGI
Result: 0.589

Task: Another sequence to look at: LDFSAWRYGRSW
Result: 0.83

Task: And what about the sequence NQEPRVSFCRDS ?
Result: 0.716

Task: Now give it for WGYWGGVMGLEE too.
Result: 0.738

Task: Could you do the same for PRSSVPATPHRR , please?
Result: 0.72

Task: And then RGDCFLVLCVWR , what is it?
Result: 0.485

Task: Queued: GCVGGGDWRFNV
Result: 0.566

Task: Also check PPPPTRSRRNLP
Result: 0.705

Task: Same for NAKQVYVSVMTR
Result: 0.5

Task: Further, for RHIRGLNLIKLI ?
Result: 0.161

Task: And then GGGGGGGGGGGG , what is it?
Result: 0.65

Task: Now the same for GNIREEYGSTGI
Result: 0.723

Task: Now try IKDESNLKKHKN .
Result: 0.715

Task: Would you mind doing GGGPGGWGGRGR as well?
Result: 0.645

Task: Also, LKNGDINYARFG please.
Result: 0.679

Task: Also, RQFRVVGCVCQP please.
Result: 0.686

Task: Also need PPPTPPRPPPLP , thanks.
Result: 0.706

Task: And APPARGTGRASL ?
Result: 0.738

Task: Same for GRLFLHPSLLAS
Result: 0.596

Task: Same thing, different sequence: NRRGGTLLATLF
Result: 0.659

Task: Could you do the same for KTVVYDDRKQLR , please?
Result: 0.674

Task: Also need RHPEVGAATDGC , thanks.
Result: 0.708

Task: Query GKAIIIFEQLRR next
Result: 0.749

Task: DGGVPGVMVVGE ?
Result: 0.644

Task: Same thing, different sequence: QMRRRGARRAKP
Result: 0.743

Task: Further, for GGGHGGVGGGMG ?
Result: 0.612

Task: Subsequent entry: SLPVSSPIRILF
Result: 0.633

Task: Next: SPPLTSPPPAPP
Result: 0.7
